Hello, the source for this data is patent US20250353864A1, in case you need it.

target: EGFR (D770_N771insNPG) (Homo sapiens (Human), UniProt P00533, INS770NPG); assay: HotSpot radiometric kinase assay, EGFR (D770_N771insNPG); conditions: 10 μM ATP, read-out: EGFR (Δ770_N771insNPG) IC50
Sequence (P00533 other isoform, or with tags, fused parts or gaps del 1-668/ins NPG behind 770 limits assumed): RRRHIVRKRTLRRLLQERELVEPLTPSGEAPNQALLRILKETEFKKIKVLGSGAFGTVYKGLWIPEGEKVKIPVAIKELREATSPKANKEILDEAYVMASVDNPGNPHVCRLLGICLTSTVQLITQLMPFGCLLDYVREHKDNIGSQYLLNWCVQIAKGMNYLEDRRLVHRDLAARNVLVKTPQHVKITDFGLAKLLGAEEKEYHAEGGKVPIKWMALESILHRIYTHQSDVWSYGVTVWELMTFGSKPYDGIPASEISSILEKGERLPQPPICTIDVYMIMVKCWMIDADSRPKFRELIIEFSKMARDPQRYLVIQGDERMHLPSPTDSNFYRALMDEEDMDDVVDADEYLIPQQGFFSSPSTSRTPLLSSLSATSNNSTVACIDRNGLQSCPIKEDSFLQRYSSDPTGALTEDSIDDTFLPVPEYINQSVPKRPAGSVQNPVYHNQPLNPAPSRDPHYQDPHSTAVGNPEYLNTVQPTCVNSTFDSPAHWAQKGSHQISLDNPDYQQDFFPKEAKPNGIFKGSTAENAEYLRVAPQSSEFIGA
Label True when IC50 is strictly below 500 nM; otherwise label False.

Record excerpt, results attached:
>>> discrete_label("CCOc1nn(CCO)c2c1/C=C/c1n[nH]c3ccc(cc13)-c1c(C)nn(C)c1O[C@@H](C)CN(C(C)C)C2")
"True"
>>> discrete_label("C[C@H]1CN(C)Cc2c(c(OC3CCN(S(C)(=O)=O)CC3)nn2CCO)/C=C/c2n[nH]c3ccc(cc23)-c2cnn(C)c2O1")
"False"
>>> discrete_label("Cc1nn(C)c2c1/C=C/c1n[nH]c3ccc(cc13)-c1cnn(C)c1O[C@@H](C)CCO2")
"False"
>>> discrete_label("CCOc1nn(CCO)c2c1/C=C/c1n[nH]c3cc(F)c(cc13)-c1c(C)nn(C)c1O[C@@H](C)CN(C(C)C)C2")
"False"
>>> discrete_label("Cn1ncc2c1OCCN1CC[C@@H](Oc3ccccc3/C=C/c3n[nH]c4ccc-2cc34)C1=O")
"True"
>>> discrete_label("CC(C)Oc1nn(CCO)c2c1/C=C/c1n[nH]c3ccc(cc13)-c1cnn(C)c1O[C@@H](C)[C@H]1CCCN1C2")
"True"

Q) Confirm or reject: IC50 of CCOc1nn(C)c2c1/C=C/c1n[nH]c3cc(F)c(cc13)-c1cnn(C)c1O[C@@H](C)CN(CC)C2 lies strictly below 500 nM
A) True

---

The next entries give measured pIC50 for EGFR WT (Homo sapiens (Human)).
Schema: pIC50 number; meaning minus log10 of the concentration expressed in molar units.

Consider the following illustrative entries.
>>> measurement("C[C@H]1CN(C)Cc2c(c(C#N)nn2C)/C=C/c2n[nH]c3ccc(cc23)-c2cnn(C)c2O1 [Example 159]")
6.79
>>> measurement("Cn1ncc2c1OCCCCOc1ccccc1/C=C/c1n[nH]c3ccc-2cc13 [Ex. 16]")
6.28
>>> measurement("CCN1CCOc2c(c(C)nn2C)/C=C/c2n[nH]c3ccc(cc23)-c2cnn(C)c2C1 [Example 111]")
7.20

Now examine the next entry.
Q) Consider the molecule CCOc1nn(CCO)c2c1/C=C/c1n[nH]c3ccc(cc13)-c1cnn(C)c1O[C@H](C)CN(C(C)=O)C2 [Example 217] and give its measured pIC50.
A) 7.14

---

target: EGFR Δ746-750 mutant (Homo sapiens (Human), UniProt P00533, DEL746-750); assay: HotSpot radiometric kinase assay, EGFR Δ746-750 mutant; conditions: 10 μM ATP
Sequence (P00533 other isoform, or with tags, fused parts or gaps del 1-668/del 746-750 limits assumed): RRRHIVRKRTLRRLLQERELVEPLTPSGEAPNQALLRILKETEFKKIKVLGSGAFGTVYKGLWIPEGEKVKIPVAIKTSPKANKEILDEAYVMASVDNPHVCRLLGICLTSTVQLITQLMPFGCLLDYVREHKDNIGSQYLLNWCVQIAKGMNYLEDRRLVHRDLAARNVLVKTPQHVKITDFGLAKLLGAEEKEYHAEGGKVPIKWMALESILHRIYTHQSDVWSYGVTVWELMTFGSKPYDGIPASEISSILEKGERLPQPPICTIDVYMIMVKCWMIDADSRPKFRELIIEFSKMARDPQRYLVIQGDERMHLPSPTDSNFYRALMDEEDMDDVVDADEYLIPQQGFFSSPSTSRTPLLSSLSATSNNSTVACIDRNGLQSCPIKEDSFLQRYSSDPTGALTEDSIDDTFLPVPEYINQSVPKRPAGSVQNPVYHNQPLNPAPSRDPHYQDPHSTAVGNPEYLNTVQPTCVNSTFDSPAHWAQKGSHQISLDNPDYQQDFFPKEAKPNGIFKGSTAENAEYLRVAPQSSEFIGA
VALUE_KIND: pIC50
Scale explanation: pIC50 corresponds to minus log10 of a concentration expressed in moles per litre.

>>> measurement("CC(C)Oc1nn(CCO)c2c1/C=C/c1n[nH]c3ccc(cc13)-c1cnn(C)c1OC[C@H](C)N(C1CC1)C2")
7.68
>>> measurement("C[C@H]1CN(C)Cc2onc(C3CC3)c2/C=C/c2n[nH]c3ccc(cc23)-c2cnn(C)c2O1")
6.27
>>> measurement("CSCn1ncc2c1O[C@@H](C)CN(C(C)C)Cc1c(c(C)nn1C)/C=C/c1n[nH]c3ccc-2cc13")
7.48
>>> measurement("C[C@H]1CN(C)Cc2cnn(C)c2/C=C/c2n[nH]c3ccc(cc23)-c2cnn(C)c2O1")
7.16
>>> measurement("CCOc1nn(CCO)c2c1/C=C/c1n[nH]c3cc(F)c(cc13)-c1c(C)nn(C)c1O[C@@H](C)CN(C(C)C)C2")
7.74
>>> measurement("Cc1nn(C[C@@H](C)O)c2c1/C=C/c1n[nH]c3ccc(cc13)-c1cnn(C)c1O[C@@H](C)CN(C)C2")
8.55

Q) Can you look up pIC50 on EGFR Δ746-750 mutant (Homo sapiens (Human), UniProt P00533, DEL746-750) for Cc1c2c(nn1C1CCN(C)C1)OCCN(C)Cc1c(cnn1C)-c1ccc3[nH]nc(c3c1)/C=C/2 (stereo not shown) ?
A) 8.16
